System: MCF7 breast
PROCEDURE SUMMARY: NCI-60 one-dose screen, 48 h
MEASUREMENT SETUP: 10 µM unless noted
About 83,000 compounds went through this panel and 20% of them were active in at least one assay; those are over-represented in the sample as a whole. Activity calls are given as the source filed them. The calls were made as follows: active = growth percent below 10; inactive = the rest.
Please reply with one of these outcomes: active, inactive

Example entries begin here.
**Q:** Test call for this molecule, please: c1ccc(Nc2ncc3c(n2)-c2cccn2CC3)cc1
**A:** inactive

**Q:** Can you look up the reported call for O=C(O)c1ccc(Br)nc1 for me?
**A:** inactive

**Q:** Lab log entry: COc1ccc(C2=C/C(=C\c3ccc(Cl)cc3)C(=O)NN2C(=S)NN)cc1 — outcome as called in the assay?
**A:** inactive

**Q:** Given C=CCNCCC#N , state the outcome it received in this test.
**A:** inactive

**Q:** What outcome does the record of this test show for CCn1cnc(C[C@H](NC(=O)[C@@H](NC(=O)Nc2cc(C(F)(F)F)cc(C(F)(F)F)c2)C(C)(C)C)C(=O)OC)c1 ?
**A:** active

**Q:** Called result for c1ccc(C(=NNc2nc3ccccc3o2)c2ccccn2)nc1
**A:** active

**Q:** What did this assay record as the result for COc1ccc(-c2cc(C#N)c(NNC(C)=O)[nH]2)cc1 ?
**A:** inactive

**Q:** Record lookup: outcome of this test for CCOc1nc(-c2ccccc2)cc2c(O)c(C(=O)N/N=C/c3ccccc3O)[nH]c(=O)c12 ?
**A:** inactive

**Q:** Returns: the outcome recorded for CCC(C)[C@H](NC(=O)Nc1cc(C(F)(F)F)cc(C(F)(F)F)c1)C(=O)N[C@@H](Cc1cn(C)cn1)C(=O)OC (some centres not stated) in this assay.
**A:** active

**Q:** I'd appreciate the recorded outcome for COc1cc2cn3c4ccc(O)cc4[nH]c(=O)c3c2cc1OC from this test.
**A:** active

New cases:
**Q:** What is the recorded call for this molecule in the test? O=S(=O)(O)c1ccc2c(c1)Sc1cc(S(=O)(=O)O)ccc1O2
**A:** inactive

**Q:** Test call, this molecule: COc1nc(OC)nc(-c2cc(C(=O)c3ccc(Br)cc3)n3cc(C)cc(C)c23)n1
**A:** inactive

**Q:** Assay outcome for Nc1nc2cc(O)ccc2n2cc3c(F)cccc3c12 : what was it?
**A:** active

**Q:** Please share the test call associated with Clc1ccc(N/N=C(\c2ccccc2)c2ccccn2)nc1 .
**A:** active

**Q:** Tell me the recorded outcome of this test for O=S(=O)(Cc1cccc2c(CS(=O)(=O)c3ccc(Cl)cc3)cccc12)c1ccc(Cl)cc1 .
**A:** inactive

**Q:** Per the records of this test, what outcome belongs to CCCCCCCCCc1cc[n+](CC(=O)c2ccc([N+](=O)[O-])cc2)cc1 ?
**A:** active

**Q:** What did the test return for CC(=O)N1CCN(CCNC(=O)n2cc(-c3ccncc3)c(-c3ccc(O)c(Cl)c3)n2)CC1 ?
**A:** inactive

====

Test system: A549/ATCC NSCLC
PROCEDURE SUMMARY: NCI-60 one-dose screen, 48 h (100 = growth as untreated, 0 = no growth, -100 = all killed)
MEASUREMENT SETUP: 10 µM unless noted
About 83,000 compounds went through this panel and 20% of them were active in at least one assay; those are over-represented in the sample as a whole.
TEST READOUT: growth (%)
Give bare numbers, in %.

**Q:** State its growth for this molecule: C=CCSc1nnc(COc2ccc3c(C)c(Cc4ccccc4)c(=O)oc3c2C)o1
**A:** 101

**Q:** Identify measured growth corresponding to COc1ccc(-c2nc(SCC(C)C)nc(Nc3ccc(C(=O)O)cc3)c2C#N)cc1
**A:** 89

**Q:** Return growth for the following molecule: C=C(C)C(C(=O)OCC)(C(=O)OCC)C(C)C
**A:** 96.5

**Q:** Please report growth for the following molecule: COc1cc2ncnc(-n3ncc4cc(NC(=O)Nc5ccc(Cl)c(C)c5)ccc43)c2cc1OC
**A:** 99.9

**Q:** Given N#CC1=C(N2CCOCC2)NC2c3ccccc3Sc3ccccc3N2C1=N (centres undefined) , respond with its growth.
**A:** 103

Hi! Can you tell me growth for each of these molecules?
1. CCOC(=O)C1=C(C(F)(F)F)NC(=S)NC1CN1C(=O)c2ccccc2C1=O (centres undefined)
2. CN1NC(c2ccccc2)NN(C)C1=O
3. CC(C)OC(=O)[C@H](C)N[P@@](=O)(OC[C@@]1(C)O[C@@H](n2cc(F)c(N)nc2=O)C[C@@H]1O[P@](=O)(N[C@@H](C)C(=O)OC(C)C)Oc1ccccc1)Oc1ccccc1
4. COc1ccc(OC)c(Cn2cc3c(c2-c2ccccc2)CCc2cnoc2-3)c1

**A:**
1. 118
2. 101
3. 92.2
4. 50.8
